- MEASUREMENT_TARGET: Serine/threonine-protein kinase Sgk3 (Homo sapiens);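 note: reported percentages are averaged inhibition values against SGK3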
- PARTICULARS: at 0.1 µM
Reported inhibition values for a set of compounds

SMI: NS(=O)(=O)c1ccc(N/N=C2\C(=O)Nc3ccc4ncccc4c32)cc1
RESULT: 1.63%

SMI: COC(=O)c1sc(-n2cnc3cc(OC)c(OC)cc32)cc1OCc1ccccc1C(F)(F)F
RESULT: 2.58%

SMI: CN(C)CCOc1ccc(-c2nc(-c3ccncc3)c(-c3ccc4c(c3)CC/C4=N\O)[nH]2)cc1
RESULT: 2.89%

SMI: CC(C)COC(=O)c1ccc2c(c1)/C(=C/Nc1ccc(S(N)(=O)=O)cc1)C(=O)N2
RESULT: 1.37%

SMI: Clc1ccc(-c2nn3ncccc3c2-c2ccnc(Nc3ccccc3)n2)cc1
RESULT: 1.92%

SMI: COc1ccc(-c2oc3ncnc(N)c3c2-c2ccc(NC(=O)Nc3cc(C(F)(F)F)ccc3F)cc2)cc1
RESULT: 3.71%

Data request: Data request, read-out inhibition, for COC(=O)Nc1nc2ccc(S(=O)(=O)c3ccc(NC(=O)Nc4cc(C(F)(F)F)ccc4F)cc3)cc2[nH]1
Data returned: 2.89%

Data request: inhibition for CCn1cc(-c2ccnc3[nH]ccc23)c(-c2cccc(NC(=O)Nc3ccc(OCc4ccccc4)cc3)c2)n1 ?
Data returned: -0.3%

Data request: Reported inhibition, compound COc1ccc(-c2cc(-c3c[nH]nc3-c3ccccn3)ccn2)cc1 : ____
Data returned: 4.82%

Data request: What value of measured inhibition is listed for Cc1ccc(O)cc1Nc1ccnc2cc(-c3ccccn3)ccc12 ?
Data returned: 4.38%

Data request: Dear colleague, I am looking for the recorded inhibition of the following compound: Cc1cccc(Nc2ncc(-c3ccccc3)o2)c1
Data returned: 0.65%

Data request: Name the reported inhibition value associated with the compound CCc1nn2ncccc2c1-c1ccnc(NC2CC2)n1
Data returned: 2.22%

Data request: What value of inhibition has been recorded for this entry: Fc1cccc(COc2ccc(Nc3ncnc4sc(-c5ccco5)cc34)cc2Cl)c1
Data returned: 4.19%

---

- MEASUREMENT_TARGET: Phosphatidylinositol 4,5-bisphosphate 3-kinase catalytic subunit delta isoform (Homo sapiens) (UniProt O00329);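 note: reported values are mean percent inhibition of PI3K-delta activity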
- Sequence (O00329 whole entry, canonical isoform): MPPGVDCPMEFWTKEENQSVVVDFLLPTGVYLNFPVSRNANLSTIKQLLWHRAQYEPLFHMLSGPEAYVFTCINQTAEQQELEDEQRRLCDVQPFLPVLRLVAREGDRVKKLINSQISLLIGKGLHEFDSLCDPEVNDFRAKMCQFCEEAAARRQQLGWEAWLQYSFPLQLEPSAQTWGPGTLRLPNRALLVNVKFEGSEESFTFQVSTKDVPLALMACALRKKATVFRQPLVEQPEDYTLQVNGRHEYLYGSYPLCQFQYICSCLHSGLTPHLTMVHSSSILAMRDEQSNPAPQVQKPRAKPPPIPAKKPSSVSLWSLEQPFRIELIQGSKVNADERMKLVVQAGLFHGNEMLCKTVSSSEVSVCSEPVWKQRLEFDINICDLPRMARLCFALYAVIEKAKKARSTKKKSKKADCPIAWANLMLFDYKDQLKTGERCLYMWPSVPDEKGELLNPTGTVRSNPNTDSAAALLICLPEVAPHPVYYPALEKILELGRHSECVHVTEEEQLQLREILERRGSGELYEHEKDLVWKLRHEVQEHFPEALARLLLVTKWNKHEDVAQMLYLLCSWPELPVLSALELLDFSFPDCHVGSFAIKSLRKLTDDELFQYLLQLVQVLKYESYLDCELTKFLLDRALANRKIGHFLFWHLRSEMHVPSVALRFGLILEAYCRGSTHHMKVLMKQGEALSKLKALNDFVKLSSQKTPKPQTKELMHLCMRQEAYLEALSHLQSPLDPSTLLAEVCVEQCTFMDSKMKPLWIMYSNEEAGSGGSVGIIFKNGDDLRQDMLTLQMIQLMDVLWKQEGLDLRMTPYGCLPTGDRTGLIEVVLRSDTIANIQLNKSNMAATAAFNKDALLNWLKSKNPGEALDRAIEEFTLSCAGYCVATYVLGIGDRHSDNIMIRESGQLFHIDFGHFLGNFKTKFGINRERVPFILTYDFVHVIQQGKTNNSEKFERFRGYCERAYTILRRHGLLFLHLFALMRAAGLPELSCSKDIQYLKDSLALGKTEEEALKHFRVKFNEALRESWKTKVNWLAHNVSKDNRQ
- PARTICULARS: at 1 µM
Overview of reported inhibition across a group of compounds:
Give the number; % is assumed, so skip it.

SMI: Cc1cccc2c1NC(=O)/C2=N\Nc1ccc(S(N)(=O)=O)cc1
inhibition / %: 3.28
--
SMI: COC(=O)Nc1nc2ccc(Oc3ccc(NC(=O)Nc4cccc(Cl)c4)cc3)cc2[nH]1
inhibition / %: 3.93
--
SMI: CCn1c(-c2nonc2N)nc2c(C#CC(C)(C)O)ncc(OC3CCNCC3)c21
inhibition / %: 0.63
--
SMI: COc1cc(N2CCN(C(C)C)CC2)ccc1Nc1nc(Nc2ccc(F)cc2C(N)=O)c2cc[nH]c2n1
inhibition / %: 2.71
--
SMI: Fc1cccc(COc2ccc(Nc3ncnc4sc(-c5ccco5)cc34)cc2Cl)c1
inhibition / %: 12.4

Data request: Which inhibition reading was recorded for the compound CCNC(=O)O[C@H]1CN[C@H](C#Cc2cc3ncnc(Nc4ccc(OCc5cccc(F)c5)c(Cl)c4)c3s2)C1 ?
Data returned: 17.2

Data request: What does the data say about its inhibition? Entry: CCc1nn2ncccc2c1-c1ccnc(NC2CC2)n1
Data returned: 0.87

Data request: Record request: inhibition value, item Cc1cccc(Nc2ncc(-c3ccccc3)o2)c1
Data returned: 1.52

Data request: I'd like to know its inhibition. The compound in question is CCn1c(-c2nonc2N)nc2ccccc21
Data returned: 3.25
